# tgt: T1, GST-DVL2 PDZ domain 1 (Homo sapiens (Human)), O14641
# T1 chain: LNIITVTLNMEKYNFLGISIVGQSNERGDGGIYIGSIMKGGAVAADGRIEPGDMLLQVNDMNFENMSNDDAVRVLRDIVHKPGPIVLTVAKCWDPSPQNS
# assay.explanation: G' assay; also: key of the grades not given here
value.type: Classification (A450 class)

- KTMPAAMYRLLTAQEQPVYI (modifications not checked) [MINT-1]: 2
- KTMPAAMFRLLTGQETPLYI (modifications not checked) [MINT-2]: 2
- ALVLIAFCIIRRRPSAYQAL (modifications not checked) [CD68]: 2
- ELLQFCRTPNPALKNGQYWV (modifications not checked) [CSPG4 (chondroitin sulfae proteoglycan 4, melanoma-associated)]: 5
- DFRPSFKHILFRRARRGFRQ (modifications not checked) [alpha-2C Adrenergic receptor]: 3
- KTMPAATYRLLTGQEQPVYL (modifications not checked) [MINT-3]: 1
- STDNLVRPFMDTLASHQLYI (modifications not checked) [presenilin-2]: 1
